test system: GP2d cells (KRAS G12D); assay: Cell-based pERK HTRF assay in GP2d cell (Biological Example 2); conditions: GP2d, GP2d (KRAS G12D) cells
Reported IC50 values for the following molecules.

Solved entries (count: 4):
N#Cc1c(N)sc2c(F)ccc(-c3c(C(F)(F)F)cc4c(N5CCCOCC5)nc(OC[C@@]56CCCN5C[C@H](F)C6)nc4c3F)c12 ... < 100 nM
CC(=O)N1C[C@H](N(C)c2nc(OC[C@@]34CCCN3C[C@H](F)C4)nc3c(F)c(-c4ccc(F)c5sc(N)c(C#N)c45)c(C(F)(F)F)cc23)C[C@@H]1C ... < 100 nM
CCN(c1nc(OC[C@@]23CCCN2C[C@H](F)C3)nc2c(F)c(-c3ccc(F)c4sc(N)c(C#N)c34)c(C(F)(F)F)cc12)[C@@H]1CC(=O)N(C2CC2)C1 ... < 100 nM
N#Cc1c(N)sc2c(F)ccc(-c3c(C(F)(F)F)cc4c(N5CCCC(c6cccnc6)C5)nc(OC[C@@]56CCCN5C[C@H](F)C6)nc4c3F)c12 (some centres unmarked) ... 100 to 1000 nM

// moving on: another record for IC50
Exercise: State the recorded IC50 for this entry: CCN(c1nc(OC[C@@]23CCCN2C[C@H](F)C3)nc2c(F)c(-c3ccc(F)c4sc(N)c(C#N)c34)c(C(F)(F)F)cc12)[C@H]1C[C@H](COC)N(C(=O)[C@@H]2CC2(F)F)C1 (atropisomer, axis not shown)
Solution: < 100 nM

* * *

Reported pIC50 values for the following molecules.
biological target: Avi-KRAS WT (1-169) GppNHp/RAF1 RBD-3xFLAG (52-151) (Homo sapiens); construct: Avi-KRAS WT (1-169); test: Raf1-KRAS WT-GppNHP disruption HTRF assay (Biological Example 1); format: binding; settings: KRAS WT-GppNHp/RAF1 RBD HTRF
Sequence (P01116 1-169 isoform P01116-2): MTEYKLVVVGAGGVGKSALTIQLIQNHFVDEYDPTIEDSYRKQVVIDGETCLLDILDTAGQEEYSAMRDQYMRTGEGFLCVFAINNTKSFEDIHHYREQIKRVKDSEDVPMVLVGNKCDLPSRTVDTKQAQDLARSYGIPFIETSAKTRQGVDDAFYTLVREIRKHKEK
pIC50: −log10 of the molar value.

Solved entries (count: 3):
CN1CCN(c2nc(OC[C@@]34CCCN3C[C@H](F)C4)nc3c(F)c(-c4ccc(F)c5sc(N)c(C#N)c45)c(C(F)(F)F)cc23)CCS1(=O)=O ... < 5.00
C[C@@H]1[C@H](N(C)c2nc(OC[C@@]34CCCN3C[C@H](F)C4)nc3c(F)c(-c4ccc(F)c5sc(N)c(C#N)c45)c(C(F)(F)F)cc23)CCN1C(=O)C(F)F ... 6.00 to 7.00
CC(=O)N1CCC(N(C)c2nc(OC[C@@]34CCCN3C[C@H](F)C4)nc3c(F)c(-c4ccc(F)c5sc(N)c(C#N)c45)c(C(F)(F)F)cc23)CC1 ... 6.00 to 7.00

Exercise: State the recorded pIC50 for this entry: CCN(c1nc(OC[C@@]23CCCN2C[C@H](F)C3)nc2c(F)c(-c3ccc(F)c4sc(N)c(C#N)c34)c(C(F)(F)F)cc12)[C@@H]1CCN(C(=O)OC)C1
Solution: 6.00 to 7.00

Exercise: State the recorded pIC50 for this entry: CN(Cc1cccnc1N)c1nc(OC[C@@]23CCCN2C[C@H](F)C3)nc2c(F)c(-c3ccc(F)c4sc(N)c(C#N)c34)c(C(F)(F)F)cc12
Solution: 6.00 to 7.00

* * *

target: Avi-KRAS G12R (1-169) GppNHp/RAF1 RBD-3xFLAG (52-151) (Homo sapiens, UniProt P01116, G12R); construct: Avi-KRAS G12R (1-169); assay: Raf1-KRAS G12R-GppNHP disruption HTRF assay (Biological Example 1); format: binding; settings: KRAS G12R, GppNHp-loaded; Table 11
Sequence (P01116 1-169 isoform P01116-2 G12R): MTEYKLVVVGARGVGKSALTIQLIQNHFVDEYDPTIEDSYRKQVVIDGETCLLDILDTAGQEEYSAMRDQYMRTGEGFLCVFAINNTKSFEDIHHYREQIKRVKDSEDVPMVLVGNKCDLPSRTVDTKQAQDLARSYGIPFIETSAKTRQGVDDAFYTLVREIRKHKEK
Result Type: IC50

Solved entries (count: 2):
CN1CCN(c2nc(OC[C@@]34CCCN3C[C@H](F)C4)nc3c(F)c(-c4ccc(F)c5sc(N)c(C#N)c45)c(C(F)(F)F)cc23)CCC1=O [Compound 271] ... 100 to 1000 nM
CN(c1nc(OC[C@@]23CCCN2C[C@H](F)C3)nc2c(F)c(-c3ccc(F)c4sc(N)c(C#N)c34)c(C(F)(F)F)cc12)[C@@H]1CCCOC1 [Compound 274] ... 100 to 1000 nM

Exercise: State the recorded IC50 for this entry: CN(c1nc(OC[C@@]23CCCN2C[C@H](F)C3)nc2c(F)c(-c3ccc(F)c4sc(N)c(C#N)c34)c(C(F)(F)F)cc12)C(CO)CO [Compound 80]
Solution: 100 to 1000 nM

* * *

Reported IC50 values for the following compounds.
molecular target: Avi-KRAS WT (1-169) GppNHp/RAF1 RBD-3xFLAG (52-151) (Homo sapiens); construct: Avi-KRAS WT (1-169); test: Raf1-KRAS WT-GppNHP disruption HTRF assay (Biological Example 1); assay type: binding; details: KRAS WT-GppNHp/RAF1 RBD HTRF

Solved entries (count: 4):
CN(c1nc(OC[C@@]23CCCN2C[C@H](F)C3)nc2c(F)c(-c3ccc(F)c4sc(N)c(C#N)c34)c(C(F)(F)F)cc12)[C@H]1CC[C@@H](O)C1 ... 100 to 1000 nM
C[C@H]1CS(=O)(=O)CCN1c1nc(OC[C@@]23CCCN2C[C@H](F)C3)nc2c(F)c(-c3ccc(F)c4sc(N)c(C#N)c34)c(C(F)(F)F)cc12 ... 100 to 1000 nM
N#Cc1c(N)sc2c(F)ccc(-c3c(C(F)(F)F)cc4c(N5CCc6cn[nH]c6C5)nc(OC[C@@]56CCCN5C[C@H](F)C6)nc4c3F)c12 ... 1000 to 10000 nM
N#Cc1c(N)sc2c(F)ccc(-c3c(Cl)cc4c(N5C[C@H]6C[C@@H]5CO6)nc(OC[C@@]56CCCN5C[C@H](F)C6)nc4c3F)c12 ... 1000 to 10000 nM

// moving on: another record for IC50
Exercise: State the recorded IC50 for this entry: CCN(c1nc(OC[C@@]23CCCN2C[C@H](F)C3)nc2c(F)c(-c3ccc(F)c4sc(N)c(C#N)c34)c(C(F)(F)F)cc12)[C@@H]1CN(C(=O)C(C)C)C[C@@H]1F
Solution: 100 to 1000 nM

* * *

target: Avi-KRAS G12V (1-169) GppNHp/RAF1 RBD-3xFLAG (52-151) (Homo sapiens, UniProt P01116, G12V); construct: Avi-KRAS G12V (1-169); experiment: Raf1-KRAS G12V-GppNHP disruption HTRF assay (Biological Example 1); type: binding; conditions: KRAS G12V, GppNHp-loaded; class symbols
Sequence (P01116 1-169 isoform P01116-2 G12V): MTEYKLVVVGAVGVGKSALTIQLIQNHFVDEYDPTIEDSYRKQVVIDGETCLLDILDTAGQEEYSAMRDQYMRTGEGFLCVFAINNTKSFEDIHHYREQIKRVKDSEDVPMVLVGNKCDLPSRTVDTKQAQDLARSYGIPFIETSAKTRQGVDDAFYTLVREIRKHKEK
Result Type: IC50

CCN(C)C(=O)N1CC[C@H](N(CC)c2nc(OC[C@@]34CCCN3C[C@H](F)C4)nc3c(F)c(-c4ccc(F)c5sc(N)c(C#N)c45)c(C(F)(F)F)cc23)C1 (atropisomer, axis not shown) ... < 100 nM

// moving on: another record for IC50
Exercise: // fetch Avi-KRAS G12V (1-169) GppNHp/RAF1 RBD-3xFLAG (52-151) (Homo sapiens, UniProt P01116, G12V) IC50 for C=C(F)C(=O)N1CC[C@@H](N(C)c2nc(OC[C@@]34CCCN3C[C@H](F)C4)nc3c(F)c(-c4ccc(F)c5sc(N)c(C#N)c45)c(C(F)(F)F)cc23)[C@H]1C
Solution: 100 to 1000 nM

* * *

molecular target: Avi-KRAS G12D (2-169) GTP/RAF1 RBD-3xFLAG (51-131) (Homo sapiens, UniProt P01116, G12D); construct: Avi-KRAS G12D (2-169); test: Raf1-KRAS G12D-GTP disruption HTRF assay (Biological Example 3); assay type: binding; settings: KRAS G12D, GTP-loaded
Sequence (P01116 2-169 isoform P01116-2 G12D): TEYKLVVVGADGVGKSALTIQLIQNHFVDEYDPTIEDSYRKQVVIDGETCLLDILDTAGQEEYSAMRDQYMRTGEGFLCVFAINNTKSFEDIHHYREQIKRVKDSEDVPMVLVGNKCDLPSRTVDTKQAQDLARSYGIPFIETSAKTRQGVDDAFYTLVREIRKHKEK
pIC50: −log10 of the molar value.
Reported pIC50 values for the following compounds.

Solved entries (count: 3):
CCN(c1nc(OC[C@@]23CCCN2C[C@H](F)C3)nc2c(F)c(-c3ccc(F)c4sc(N)c(C#N)c34)c(C(F)(F)F)cc12)[C@H]1CCN(C(C)=O)[C@@H]1COC (atropisomer, axis not shown) ... 6.00 to 7.00
CCN(c1nc(OC[C@@]23CCCN2C[C@H](F)C3)nc2c(F)c(-c3ccc(F)c4sc(N)c(C#N)c34)c(C(F)(F)F)cc12)[C@H]1CCN(C(=O)c2cocn2)[C@@H]1C (atropisomer, axis not shown) ... 6.00 to 7.00
CCN(c1nc(OC[C@@]23CCCN2C[C@H](F)C3)nc2c(F)c(-c3ccc(F)c4sc(N)c(C#N)c34)c(C(F)(F)F)cc12)[C@H]1CCN(C(=O)C2CC2(F)F)[C@@H]1C (stereo partly shown) ... 6.00 to 7.00

Exercise: // fetch Avi-KRAS G12D (2-169) GTP/RAF1 RBD-3xFLAG (51-131) (Homo sapiens, UniProt P01116, G12D) pIC50 for CCN(c1nc(OC[C@@]23CCCN2C[C@H](F)C3)nc2c(F)c(-c3ccc(F)c4sc(N)c(C#N)c34)c(C(F)(F)F)cc12)[C@H]1CCN(C(=O)[C@@H]2CC2(F)F)[C@H]1C (atropisomer, axis not shown)
Solution: 5.00 to 6.00
